Taken from patent US9975885B2.

# System: Ten CoV 3CL^pro's (FIPV-, PEDV-, NL63-, HKU1-, OC43-, SARS-, HKU4-, HKU5-, HKU9-, IBV-3CL^pro)
# Type: biochemical, coronaviruses (α-, β-, γ-CoV)
Marks after values point to notes of the source that are not given here.
Measurement Kind: Score (performance metric score)

Examples from the recorded data:
>  <Compound>
O=C(Nc1ccc(N(C(=O)Cn2nnc3ccccc32)C(C(=O)NCc2ccccc2)c2ccsc2)cc1)C1CC1 (stereo not drawn)

>  <Reading>
5.3*

$$$$
>  <Compound>
O=C(Nc1ccc(N(C(=O)Cn2nnc3ccccc32)C(C(=O)NC2CCCCC2)c2ccsc2)cc1)C1CC1 (stereo not drawn)

>  <Reading>
8.3*

$$$$

Input O=C(Nc1ccc(N(C(=O)Cn2nnc3ccccc32)C(C(=O)NC2CCCC2)c2ccsc2)cc1)C1CC1 (stereo not drawn) . Output Score (performance metric score): 5.7*
